assay: yeast display, Sf9 membrane polyspecificity reagent, FACS + sequencing; frameworks hold sequencing errors
assayEndpoint: polyreactivity (PSR sort gate)

Consider the reported polyreactivity (PSR sort gate) for these sequences:
sequencestring=QLQLVESGGGLVQAGGSLRLSCAASGITFYVYAMGCYRQAPGKERELVAAISTSGGSTYYADSVKGRFTISRDNAKNTVYFQMNSLKPEDTAVYYCAAEELRYGLYEYDYWGQGTQVTVSS assayendpoint="polyreactivity (PSR sort gate)" value="high polyreactivity"
sequencestring=QVQLVESGGCLVQAGGSLRLSCAASGRIFLRYAMGWYRQAPGKEREFVADITYSGGSTYYADSVKGRFTISRDNAKNTVYLQMNSLKPEDTAVYYCAAGWVRPWATYKLDYWGQGTQVTVTS assayendpoint="polyreactivity (PSR sort gate)" value="high polyreactivity"
sequencestring=QVQLVESGGGLVQAGGSLRLSCAASGRTFGYNAMGWYSQAPGKETELVAAINWSDASTYYADSVKGRFTISRDNAKNTVSLQMNSLKPEDTAVYYCAADYSYIYGFDYWGQGTLVTVSS assayendpoint="polyreactivity (PSR sort gate)" value="low polyreactivity"
sequencestring=QVQLVESGGGLVQAGGSLRLSCAASGFTFKYYAMGWYRQAPGKERELVAAISRGGSTYYADSVKGRFTFSRDNAKNTVYLQMNSLKPEDTAVYYCAARYVRVGYDYWGQGTQVTVSS assayendpoint="polyreactivity (PSR sort gate)" value="high polyreactivity"

Query block: Entry `QVQLVESGGGLVQAGGSLRLSCAASGFILYSYAMGWSRQAPGKEREFVSVISRGGGRTYYADSVKGRFTISRDNAKNTVYLQMNSLKPEDTAVYYCAAGSRSPHWYTRELDYWGQGTQVTVSS` has what polyreactivity (PSR sort gate)?
Result block: low polyreactivity

Query block: Entry `QVQLVESGGGLVQAGGSLRLSCAASGIIFFNNVMGWYRQAPGKERVLVAGITYTGGSTYYADSVKGRFTISRDNAKNTVYLHMNSLKPEDTAVYNCNKDYANTRRVTEYDYWGQGTQVTVSS` has what polyreactivity (PSR sort gate)?
Result block: low polyreactivity

Query block: Entry `QVQLQESAGARQPAPELRGERIYFWLLLMCWYRQAPGEERELVAGINDGASTNYADSVKGRFTISRDNARNTVYLKMNSLKPGDTAVYYCAVWQPVLIWFYYWGQGTHVTVSS` has what polyreactivity (PSR sort gate)?
Result block: high polyreactivity

Query block: Entry `QVQLQESGGGLVQAGGSLRLSCAASGNIFGTKSMGWYRQAPGKGREFVAAINDGGSTNYADSVKGRFTIGRDNAKNTVYLQMNSLKPEDTAVYYCAAQWVRSDYHTYWGQGTQVTVSS` has what polyreactivity (PSR sort gate)?
Result block: high polyreactivity

Query block: Entry `QVQLVESGGGLVQAGGSLRLSCAASGRITFSHNTMGWYRQAPGKERELVAAISSGGRTNYADSVKGRFTISRDNAKNTVYLQMNSLKPEDTAVYYCARESHYDFIYDGMDYWGQGTQVTVSS` has what polyreactivity (PSR sort gate)?
Result block: low polyreactivity

Query block: Entry `QVQLVESGGGLVQAGGSLRLSCAASGLIFPYYAMGWYRQAHGKERELVAAITRRGGSTYYADSVKGRFTISRDNAKNTVYLQMNSLKPEDTAVYYCNKVDQGRYGYWGQGTQVTVSS` has what polyreactivity (PSR sort gate)?
Result block: high polyreactivity

Query block: Entry `QVQLVESGGCLVQAGGSLRLSCASSGSTFVRYTLGRYRQAPGKEREMVARISRTSSTNYADSVKGRFTISRDNAKNTVYLQMNSLKPEDTSVYYCNAREYYPTKSRFKYWGQGTQVTVSS` has what polyreactivity (PSR sort gate)?
Result block: low polyreactivity
